# ASSAYED_TARGET: uterine OT receptors (Rattus norvegicus, UniProt P70536)
# Construct: using a crude membrane preparation of uteri; from tissue; host or cells: uterus of DES-treated rats, crude membrane preparation
# Sequence (P70536 whole entry): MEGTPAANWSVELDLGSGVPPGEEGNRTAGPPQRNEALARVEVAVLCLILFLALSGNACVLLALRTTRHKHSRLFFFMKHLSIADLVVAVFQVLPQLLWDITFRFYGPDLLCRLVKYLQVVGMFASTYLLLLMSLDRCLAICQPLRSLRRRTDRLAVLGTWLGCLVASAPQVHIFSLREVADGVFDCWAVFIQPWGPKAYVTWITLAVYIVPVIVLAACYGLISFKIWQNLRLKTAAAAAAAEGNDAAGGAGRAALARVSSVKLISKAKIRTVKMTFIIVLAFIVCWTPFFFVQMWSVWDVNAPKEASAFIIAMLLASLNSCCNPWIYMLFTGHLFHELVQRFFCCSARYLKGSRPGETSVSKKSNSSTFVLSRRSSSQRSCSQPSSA
# EXPERIMENT: [³H]Oxytocin radioligand binding assay, crude membrane preparation of uteri from DES-treated rats
# CONDITIONS: read-out: inhibition at 1,000 nM

- COMPOUND: "Cc1ccccc1N1CCN(S(=O)(=O)C[C@]23CC[C@H](C[C@H]2O)C3(C)C)C(C)C1 (stereo partly shown) [Example 32]"
  inhibition at 1 µM, %: 37
- COMPOUND: "Cc1ccccc1N1CCN(S(=O)(=O)CC23CCC(CC2=CCN=[N+]=[N-])C3(C)C)CC1 (stereo not shown) [Example 15]"
  inhibition at 1 µM, %: 44
- COMPOUND: "Cc1ccccc1N1CCN(S(=O)(=O)C[C@]23CC[C@H](C[C@]2(O)CNCC(C)C)C3(C)C)CC1 [Example 19]"
  inhibition at 1 µM, %: 31
- COMPOUND: "Cc1ccccc1N1CCN(S(=O)(=O)CC23CCC(CC24CO4)C3(C)C)CC1 (stereo not shown) [Example 18]"
  inhibition at 1 µM, %: 75
- COMPOUND: "Cc1ccccc1N1CCN(S(=O)(=O)CC23CCC(CC2=CCN)C3(C)C)CC1 (stereo not shown) [Example 16]"
  inhibition at 1 µM, %: 64
- COMPOUND: "Cc1ccccc1N1CCN(S(=O)(=O)C[C@]23CC[C@H](C[C@@H]2N(C)C(=O)OCc2ccccc2)C3(C)C)CC1 [Example 40]"
  inhibition at 1 µM, %: 35
- COMPOUND: "COC(=O)C1=CC2CCC1(CS(=O)(=O)N1CCN(c3ccccc3C)CC1)C2(C)C (stereo not shown) [Example 20]"
  inhibition at 1 µM, %: 72
- COMPOUND: "Cc1ccccc1N1CCN(S(=O)(=O)CC23CCC(C=C2C(=O)O)C3(C)C)CC1 (stereo not shown) [Example 21]"
  inhibition at 1 µM, %: 38
- COMPOUND: "Cc1ccccc1N1CCN(S(=O)(=O)C[C@]23CC[C@H](C[C@@H]2NC(=O)OCc2ccccc2)C3(C)C)CC1 [Example 39]"
  inhibition at 1 µM, %: 54
- COMPOUND: "Cc1ccccc1N1CCN(S(=O)(=O)CC23CCC(C=C2C(=O)NCCc2cnc[nH]2)C3(C)C)CC1 (stereo not shown) [Example 22]"
  inhibition at 1 µM, %: 78
